- protocolDetails: Kinetic solubility of compound
- Format: physicochemical
- measurementParameters: read-out: Kinetic_solubility
endpointLabel: solubility kinetic (µM)
Numbers only; they are read as µM.

| smilesStructure | unitOfMeasurement | reported |
| --- | --- | --- |
| CCC[C@@H](NC(=O)c1cccc2[nH]c(=O)ccc12)[C@@H](O)c1cccc(Cl)c1C | µM | 309 |

Next, consider the following compound.
Q) Indicate the recorded solubility kinetic value for this compound: "CCC[C@@H](NC(=O)c1cccc2[nH]c(=O)[nH]c12)[C@@H](O)c1cccc(Cl)c1C"
A) 307

* * *

- protocolDetails: Lipophilicity, log D of compound by chromatographic method
- Format: physicochemical
Quick rule: chromatographic logD of at least 4 means T, below that means F.

Below, 6 molecules whose answers are already recorded.
| smilesStructure | qualitativeLabel |
| --- | --- |
| CCC[C@@H](NC(=O)c1cccc2[nH]c(=O)oc12)[C@@H](O)c1cccc(Cl)c1C | T |
| CCC[C@@H](NC(=O)c1ccc2cc[nH]c2c1)[C@@H](O)c1ccccc1 | T |
| CCC[C@@H](NC(=O)c1cccc2c1CC(=O)N2)[C@@H](O)c1ccccc1OC | F |
| CCC[C@@H](NC(=O)c1cccc2[nH]c(=O)ccc12)[C@@H](O)c1cccc(Cl)c1C | F |
| CCC[C@@H](NC(=O)c1cccc2c1CC(=O)N2)[C@@H](O)c1ccccc1C(F)(F)F | F |
| CCC[C@@H](NC(=O)c1cccc2c1CC(=O)N2)[C@@H](O)c1cccc(F)c1C | F |

Continue with the molecule presented below.
Q) API: above_or_equal(metric=chromatographic logD, cutoff=4) for item "CCC[C@@H](NC(=O)c1cccc2c1CC(=O)N2)[C@@H](O)c1ccccc1Cl"
A) F
